MEASURED_TARGET: hKOR (Homo sapiens)
RUN_DESCRIPTION: biochemical
PROPERTY_LABEL: log10(EC50) (log10 of the value in nM)
Please be aware that the numbers have been log10-transformed from EC50 in nM.

The examples below pair each entry with its known result.
> print(dat)
                              line.notation  endpoint.result
1  COC(=O)[C@@H]1C[C@H](OC(=O)C2Cc3ccccc3C2)C(=O)[C@H]2[C@@]1(C)CC[C@H]1C(=O)O[C@H](c3ccoc3)C[C@]21C             3.48
2  COC(=O)[C@@H]1C[C@H](OC(=O)[C@@H]2Cc3ccccc3N2)C(=O)[C@H]2[C@@]1(C)CC[C@H]1C(=O)O[C@H](c3ccoc3)C[C@]21C             2.56
3  COC(=O)[C@@H]1C[C@H](OC(=O)C2=CCc3ccccc32)C(=O)[C@H]2[C@@]1(C)CC[C@H]1C(=O)O[C@H](c3ccoc3)C[C@]21C             3.20
4  COC(=O)[C@@H]1C[C@H](OC(=O)c2cc3ccc(F)cc3[nH]2)C(=O)[C@H]2[C@@]1(C)CC[C@H]1C(=O)O[C@H](c3ccoc3)C[C@]21C             2.62
5  COC(=O)[C@@H]1C[C@H](OC(=O)c2cc3cccc(F)c3[nH]2)C(=O)[C@H]2[C@@]1(C)CC[C@H]1C(=O)O[C@H](c3ccoc3)C[C@]21C             1.56
6  COC(=O)[C@@H]1C[C@H](OC(=O)c2cc3ccccn3c2)C(=O)[C@H]2[C@@]1(C)CC[C@H]1C(=O)O[C@H](c3ccoc3)C[C@]21C             3.19
7  COC(=O)[C@@H]1C[C@H](OC(=O)[C@H]2Cc3ccccc3N2)C(=O)[C@H]2[C@@]1(C)CC[C@H]1C(=O)O[C@H](c3ccoc3)C[C@]21C             3.35
8  COC(=O)[C@@H]1C[C@H](OC(=O)c2nc3ccccc3s2)C(=O)[C@H]2[C@@]1(C)CC[C@H]1C(=O)O[C@H](c3ccoc3)C[C@]21C             2.47
9  COC(=O)[C@@H]1C[C@H](OC(=O)c2cc3c(F)cccc3[nH]2)C(=O)[C@H]2[C@@]1(C)CC[C@H]1C(=O)O[C@H](c3ccoc3)C[C@]21C             2.94

Inquiry: So what's the measured log10(EC50) for this one? COC(=O)[C@@H]1C[C@H](OC(=O)c2cc3cc(F)ccc3[nH]2)C(=O)[C@H]2[C@@]1(C)CC[C@H]1C(=O)O[C@H](c3ccoc3)C[C@]21C
Reply text: 3.05

----------
Listed here are molecules together with their documented Full or partial agonist (KOR).
MEASURED_TARGET: hKOR (Homo sapiens)
RUN_DESCRIPTION: biochemical
Format: biochemical
Marks after values point to notes of the source that are not given here.

The examples below pair each entry with its known result.
> print(dat)
                              line.notation       endpoint.result
1  COC(=O)[C@@H]1C[C@H](OC(=O)C2=CCc3ccccc32)C(=O)[C@H]2[C@@]1(C)CC[C@H]1C(=O)O[C@H](c3ccoc3)C[C@]21C   1570 (548–4500)^[c]
2  COC(=O)[C@@H]1C[C@H](OC(=O)c2cc3ccccn3c2)C(=O)[C@H]2[C@@]1(C)CC[C@H]1C(=O)O[C@H](c3ccoc3)C[C@]21C  1560 (213–11500)^[c]
3  COC(=O)[C@@H]1C[C@H](OC(=O)c2cc3cccc(F)c3[nH]2)C(=O)[C@H]2[C@@]1(C)CC[C@H]1C(=O)O[C@H](c3ccoc3)C[C@]21C  36.5 (13.6–98.2)^[d]
4  COC(=O)[C@@H]1C[C@H](OC(=O)c2cc3ccc(F)cc3[nH]2)C(=O)[C@H]2[C@@]1(C)CC[C@H]1C(=O)O[C@H](c3ccoc3)C[C@]21C     419 (240–729)^[c]
5  COC(=O)[C@@H]1C[C@H](OC(=O)c2cc3c(F)cccc3[nH]2)C(=O)[C@H]2[C@@]1(C)CC[C@H]1C(=O)O[C@H](c3ccoc3)C[C@]21C    877 (564–1360)^[d]

Inquiry: So what's the measured Full or partial agonist (KOR) for this one? COC(=O)[C@@H]1C[C@H](OC(=O)C2=Cc3ccccc3C2)C(=O)[C@H]2[C@@]1(C)CC[C@H]1C(=O)O[C@H](c3ccoc3)C[C@]21C
Reply text: 853 (456–1600)^[d]

----------
# collection of pKd values tested on hMOR (Homo sapiens, UniProt P35372)
# Sequence (P35372 whole entry): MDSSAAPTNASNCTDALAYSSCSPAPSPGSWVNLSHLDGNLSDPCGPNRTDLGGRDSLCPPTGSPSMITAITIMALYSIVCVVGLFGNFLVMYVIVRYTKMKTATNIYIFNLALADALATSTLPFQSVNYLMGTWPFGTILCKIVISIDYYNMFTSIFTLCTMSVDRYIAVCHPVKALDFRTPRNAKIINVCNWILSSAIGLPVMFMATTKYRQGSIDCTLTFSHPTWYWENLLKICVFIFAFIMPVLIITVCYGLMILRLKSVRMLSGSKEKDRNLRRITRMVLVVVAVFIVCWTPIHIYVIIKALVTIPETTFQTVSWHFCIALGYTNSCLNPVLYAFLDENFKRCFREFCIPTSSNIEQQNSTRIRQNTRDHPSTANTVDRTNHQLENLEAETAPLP
# pKd: negative log10 of molar concentration; output just the value

The examples below pair each entry with its known result.
> print(dat)
                              line.notation  property.label  endpoint.result
1  COC(=O)[C@@H]1C[C@H](OC(=O)c2cc3ccc(F)cc3[nH]2)C(=O)[C@H]2[C@@]1(C)CC[C@H]1C(=O)O[C@H](c3ccoc3)C[C@]21C             pKd             7.40
2  COC(=O)[C@@H]1C[C@H](OC(=O)c2cc3ccccn3c2)C(=O)[C@H]2[C@@]1(C)CC[C@H]1C(=O)O[C@H](c3ccoc3)C[C@]21C             pKd             5.86
3  COC(=O)[C@@H]1C[C@H](OC(=O)C2=Cc3ccccc3C2)C(=O)[C@H]2[C@@]1(C)CC[C@H]1C(=O)O[C@H](c3ccoc3)C[C@]21C             pKd             6.27

Inquiry: So what's the measured pKd for this one? COC(=O)[C@@H]1C[C@H](OC(=O)c2cc3c(F)cccc3[nH]2)C(=O)[C@H]2[C@@]1(C)CC[C@H]1C(=O)O[C@H](c3ccoc3)C[C@]21C
Reply text: 7.88

Inquiry: So what's the measured pKd for this one? COC(=O)[C@@H]1C[C@H](OC(=O)c2nc3ccccc3[nH]2)C(=O)[C@H]2[C@@]1(C)CC[C@H]1C(=O)O[C@H](c3ccoc3)C[C@]21C
Reply text: 7.08

Inquiry: So what's the measured pKd for this one? COC(=O)[C@@H]1C[C@H](OC(=O)C2=CCc3ccccc32)C(=O)[C@H]2[C@@]1(C)CC[C@H]1C(=O)O[C@H](c3ccoc3)C[C@]21C
Reply text: 6.27

Inquiry: So what's the measured pKd for this one? COC(=O)[C@@H]1C[C@H](OC(=O)[C@H]2Cc3ccccc3N2)C(=O)[C@H]2[C@@]1(C)CC[C@H]1C(=O)O[C@H](c3ccoc3)C[C@]21C
Reply text: 8.04

Inquiry: So what's the measured pKd for this one? COC(=O)[C@@H]1C[C@H](OC(=O)c2cc3cccc(F)c3[nH]2)C(=O)[C@H]2[C@@]1(C)CC[C@H]1C(=O)O[C@H](c3ccoc3)C[C@]21C
Reply text: 7.23

----------
MEASURED_TARGET: UniProtKB P41143
Sequence (P41143 whole entry): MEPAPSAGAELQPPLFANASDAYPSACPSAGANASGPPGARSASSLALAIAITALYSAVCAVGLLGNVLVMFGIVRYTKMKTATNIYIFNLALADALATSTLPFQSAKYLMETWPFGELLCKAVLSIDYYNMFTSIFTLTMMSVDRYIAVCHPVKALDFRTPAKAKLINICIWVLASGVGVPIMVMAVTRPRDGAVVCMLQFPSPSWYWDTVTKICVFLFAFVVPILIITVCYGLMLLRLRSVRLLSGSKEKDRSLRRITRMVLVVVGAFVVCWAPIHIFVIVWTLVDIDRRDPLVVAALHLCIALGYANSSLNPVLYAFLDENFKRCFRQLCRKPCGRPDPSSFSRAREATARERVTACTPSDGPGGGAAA
RUN_DESCRIPTION: GTPγS functional assay, DOR
Listed here are compounds together with their documented pEC50.
# pEC50: negative log10 of molar concentration; output just the value

> print(dat)
                                   compound  property.label  endpoint.result
1  COC(=O)[C@@H]1C[C@H](OC(=O)C2=Cc3ccccc3C2)C(=O)[C@H]2[C@@]1(C)CC[C@H]1C(=O)O[C@H](c3ccoc3)C[C@]21C [Compound 2]           pEC50             5.63

Alright, here's another compound for you.
Inquiry: So what's the measured pEC50 for this one? COC(=O)[C@@H]1C[C@H](OC(=O)c2cc3ccccn3c2)C(=O)[C@H]2[C@@]1(C)CC[C@H]1C(=O)O[C@H](c3ccoc3)C[C@]21C [Compound 12]
Reply text: 6.13

----------
MEASURED_TARGET: hKOR (Homo sapiens, UniProt P41145)
Sequence (P41145 whole entry): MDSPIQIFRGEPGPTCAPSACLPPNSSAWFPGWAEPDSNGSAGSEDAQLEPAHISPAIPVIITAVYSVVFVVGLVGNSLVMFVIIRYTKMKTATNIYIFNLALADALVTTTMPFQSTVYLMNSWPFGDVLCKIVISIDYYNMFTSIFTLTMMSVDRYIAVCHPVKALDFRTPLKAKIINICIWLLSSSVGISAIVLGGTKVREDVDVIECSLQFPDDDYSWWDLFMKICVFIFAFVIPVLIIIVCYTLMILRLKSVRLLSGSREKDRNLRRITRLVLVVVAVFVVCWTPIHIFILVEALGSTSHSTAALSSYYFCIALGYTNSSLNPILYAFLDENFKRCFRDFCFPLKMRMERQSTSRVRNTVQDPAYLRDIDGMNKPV
RUN_DESCRIPTION: biochemical
Type: biochemical
Marks after values point to notes of the source that are not given here.
PROPERTY_LABEL: Full or partial agonist (KOR)

> print(dat)
                              line.notation                      measured.target                 property.label       endpoint.result
1  COC(=O)[C@@H]1C[C@H](OC(=O)c2cc3cc(F)ccc3[nH]2)C(=O)[C@H]2[C@@]1(C)CC[C@H]1C(=O)O[C@H](c3ccoc3)C[C@]21C  hKOR (Homo sapiens, UniProt P41145)  Full or partial agonist (KOR)   1110 (441–2790)^[c]
2  COC(=O)[C@@H]1C[C@H](OC(=O)[C@H]2Cc3ccccc3N2)C(=O)[C@H]2[C@@]1(C)CC[C@H]1C(=O)O[C@H](c3ccoc3)C[C@]21C  hKOR (Homo sapiens, UniProt P41145)  Full or partial agonist (KOR)  2260 (1360–3760)^[c]
3  COC(=O)[C@@H]1C[C@H](OC(=O)c2nc3ccccc3s2)C(=O)[C@H]2[C@@]1(C)CC[C@H]1C(=O)O[C@H](c3ccoc3)C[C@]21C  hKOR (Homo sapiens, UniProt P41145)  Full or partial agonist (KOR)     294 (179–482)^[d]
4  COC(=O)[C@@H]1C[C@H](OC(=O)[C@@H]2Cc3ccccc3N2)C(=O)[C@H]2[C@@]1(C)CC[C@H]1C(=O)O[C@H](c3ccoc3)C[C@]21C  hKOR (Homo sapiens, UniProt P41145)  Full or partial agonist (KOR)     361 (216–602)^[d]

Inquiry: So what's the measured Full or partial agonist (KOR) for this one? COC(=O)[C@@H]1C[C@H](OC(=O)C2Cc3ccccc3C2)C(=O)[C@H]2[C@@]1(C)CC[C@H]1C(=O)O[C@H](c3ccoc3)C[C@]21C
Reply text: 3000 (409–22000)^[d]
